For each of the sequences below, state its protein stability index.
assay: protein stability index of a GFP-peptide fusion (yeast GPS) (PSI 1-4); higher = more stable; sorted into four equal gates, so the index is relative within each strain; conditions: pdr5∆
Respond using a number only.

Query :: Which value of protein stability index has been reported for LLFIVGQVAIKTLVYLE [YCS4] in the records?
Result :: 1.74

Query :: Look up protein stability index for this sequence: KDKLREFIPHSTEYMMQ [RPN6]
Result :: 3.22

Query :: I'd like to know its protein stability index. The sequence in question is NGVPGQALDAVRMRLAQ [MED8]
Result :: 1.39

Query :: State the recorded protein stability index for this entry: IGEFNVSMYQNSSTSST [YDL088C/ASM4]
Result :: 1.97

Query :: Find the recorded protein stability index belonging to EYEEWQKSVSLLSSESN [YDL116W/NUP84] and report it.
Result :: 3.02

Query :: Return reported protein stability index; argument: STIPTRENGKGGQIAHI [ROX3]
Result :: 3.17

Query :: # query: protein stability index of entry VVEISNGNTSSKTVVTL [FAS1]
Result :: 3.18

Query :: # input sequence: KKDVEKELPDKVEKVVK [SNF2] ; wanted: its protein stability index
Result :: 3.47

Query :: Quick one: protein stability index for QKNYADPEKDSINATAL [SIN4] ?
Result :: 1.71

Query :: What value of protein stability index has been recorded for this entry: EEELWNSPSKGNSERPS [YIL149C/MLP2]
Result :: 3.38

Query :: Recorded protein stability index of GTAGGNTFGSSSLFNNS [YJL041W/NSP1] , please.
Result :: 3.09

Query :: Record request: protein stability index value, item HELSRAELEELEEFEFK [SMD2]
Result :: 3.3

Query :: I would be grateful if you could share the reported protein stability index for TFHHHGRQTVLIKDNSA [SRB2] .
Result :: 2.52

Query :: Value lookup for protein stability index; key = IPQSQQVPQVRSMSGQP [SNF5]
Result :: 2.55

###

Please go through the items and note down their protein stability index.
experiment: protein stability index of a GFP-peptide fusion (yeast GPS) (PSI 1-4); higher = more stable; sorted into four equal gates, so the index is relative within each strain; conditions: san1∆
No unit in the answer, please; the number alone is enough.

Query :: Find the recorded protein stability index belonging to KMIILDKLLKRLKEKGS [ISW2] and report it.
Result :: 1.35

Query :: Quick one: protein stability index of YVRKHDPLNSNIFSEAV [PRP28] ?
Result :: 2.9

Query :: # protein stability index lookup, item ATFSVSQASSDLGETFR [CSL4]
Result :: 3.23

Query :: Requested field: protein stability index. Item: NMEKEKDRIIDERTKEF [YIL149C/MLP2]
Result :: 3.1

Query :: Name the reported protein stability index value associated with the sequence SSLRNQELLNAETLCFT [RPN3]
Result :: 3.22

Query :: Look up protein stability index for this sequence: ATPGRLIDSLENHLLVM [PRP28]
Result :: 2.06

Query :: What value of protein stability index has been reported for the following sequence? RFKMERAGVTHVLSRLS [RET1]
Result :: 1.2

Query :: Give its protein stability index value. Item: VVRIKGINKIPPKPRKV [RPL7A]
Result :: 2.57

Query :: What value of measured protein stability index is listed for LNIDFGSDKQMFTQIYL [YML103C/NUP188] ?
Result :: 2.46

Query :: Find the recorded protein stability index belonging to SMENYHLLIKIIRQLSE [SRB8] and report it.
Result :: 2.31

Query :: For the sequence IQQHARYDCSFCGKKTV [RPL43A] , what protein stability index is on record?
Result :: 2.81

Query :: Need protein stability index of STSFSFNAPATGNGTTT [YOR098C/NUP1] , thanks.
Result :: 3.03

Query :: Sample NEPLSEIEIEGVMSLLQ [YAR002W/NUP60] — what was its protein stability index?
Result :: 3.22

Query :: Please report the recorded protein stability index for KNESATINEMMKHLGRS [FAS2] .
Result :: 2.65

Query :: Recorded protein stability index for LICQNNLNAFVDFSKYN [SRP72] , please?
Result :: 3.11

Query :: So what does the record say about protein stability index for DVNIVNRRLVYSRILKS [YCG1] ?
Result :: 1.38

Query :: Request the reported protein stability index associated with MNGIQVDINRLKKGEVS [PRE3]
Result :: 2.52

Query :: For the sequence shown here, DNDRFNVVGKLISIISS [YML103C/NUP188] , give the reported protein stability index.
Result :: 1.21

Query :: // protein stability index lookup, key: SNQRFKDLQWLEFARIT [SIN4]
Result :: 2.74

Query :: Reported protein stability index, sequence MLTIARLGFFYNDQLYV [RPN7] : ____
Result :: 1.47

Query :: Dear colleague, I am looking for the recorded protein stability index of the following sequence: SYPILNESSTFLKLVLS [SIN4]
Result :: 2.11

Query :: Endpoint output: protein stability index of VRSLPKEEQPKQIIVTR [PRP8] . Value?
Result :: 2.21

Query :: Tell me the measured protein stability index of MKLNISYPVNGSQKTFE [RPS6A] , please.
Result :: 2.79

Query :: Which protein stability index value belongs to HNLHPQIGQVPLAPAPI [SNF5] ?
Result :: 2.56

Query :: Reported protein stability index, sequence HFIQKLHTARKILVLTG [SIR2] : ____
Result :: 1.1

Query :: Entry VNITKFSKFERSKSSHK [SKI6] : reported protein stability index = ?
Result :: 2.76

Query :: Need protein stability index, item VGACTDEEMTISQKLHD [RRP43]
Result :: 3.04

Query :: Item HLRSNILKDLIYRGVLN [SMC1] has what recorded protein stability index?
Result :: 1.8

Query :: Form field: reported protein stability index of LLKLIEPYVAYGYPSYS [RPL7A]
Result :: 2.2

Query :: So what's the measured protein stability index for this one? EDHVEDHRKRKKSKIQL [LIN1]
Result :: 3.12

###

assay: protein stability index of a GFP-peptide fusion (yeast GPS) (PSI 1-4); higher = more stable; sorted into four equal gates, so the index is relative within each strain; settings: ubr1∆
observable: protein stability index
Please give the numeric answer without any surrounding text.

Query :: Suppose we examine the sequence EIHPITFPPEVLARISP [RRP43] ; what protein stability index value has been reported?
Result :: 1.94

Query :: Please look up its protein stability index: MTVTFLILAGQVKVKGQ [YCS4]
Result :: 1.83

Query :: Data request, read-out protein stability index, for ETIQADLNHVTEELQTQ [SMC2]
Result :: 3.01

Query :: # query: protein stability index of entry TENEKFISYHDKYLCML [NUT1]
Result :: 3.11

Query :: For DLYEQIGIDPPRGVLLY [RPT3] , what is its reported protein stability index?
Result :: 2.9

Query :: Field request: protein stability index | item: VFGISKTSSGSYNYVEN [ITC1]
Result :: 3.28

Query :: Need protein stability index, item LYAVSTFENTNNTEKND [SIR4]
Result :: 2.38

Query :: State the recorded protein stability index for this entry: SLLLSSSFKEDCLSFAP [SSN2]
Result :: 3.2

###

assay: protein stability index of a GFP-peptide fusion (yeast GPS) (PSI 1-4); higher = more stable; sorted into four equal gates, so the index is relative within each strain; details: ubr1∆
observable: protein stability index
Number, no unit, nothing else.

Query :: Give its protein stability index value. Item: FTLLDFKKQMQTIMKMG [SRP54]
Result :: 2.71

Query :: # query: protein stability index of entry SLVFNRKLAVERAGHLL [PRE5]
Result :: 1.71

Query :: // lookup protein stability index for LTESQTETYISDLVNQG [RPN5]
Result :: 3.21

Query :: # protein stability index lookup, item RSMVRKWQTLIEANVTV [RPS1A]
Result :: 2.24

Query :: I am curious: what protein stability index value has been reported for VRNTAPNIRELGVKNLG [YCG1] ?
Result :: 2.98

Query :: // protein stability index lookup, key: LLIRSKTEDPKGGIIAS [YML031W/NDC1]
Result :: 2.66

Query :: What protein stability index value was documented for this sequence, DTSKALLNVSVNITKFS [SKI6] ?
Result :: 2.42

Taken from the supplement of paper PMC9732359.
